- Assayed system: Bromodomain-containing protein 4 (Homo sapiens, UniProt O60885)
- Protocol summary: Binding affinity to His-tagged biotinylated BRD4 BD1 (unknown origin) assessed as dissociation constant by biolayer interferometry analysis
Experimental endpoint: Kd (µM)
Quick reminder: number only, in µM, skip the unit.

IN: Report Kd for N#Cc1c(O)nc(SCc2ccccc2Cl)nc1-c1ccccc1 please.
OUT: 184

IN: Report Kd for COc1cc(-c2nc(SCc3ccccc3Cl)[nH]c(=O)c2C#N)cc(OC)c1OC please.
OUT: 0.756

* * *

Assignment: determine reported inhibition for the given molecules.
- Assayed system: Bromodomain-containing protein 4 (Homo sapiens, UniProt O60885)
- Protocol summary: Inhibition of BRD4 BD1 (57 to 168 residues) (unknown origin) transfected in Escherichia coli (DE3) using FAM-labeled JQ-1 as fluorescent substrate at 50 uM incubated for 30 mins by competitive fluorescence polarization method relative to control
Quick reminder: number only, in %, skip the unit.

IN: Report inhibition for Cc1cccc(OCc2occc2C(=O)N(C)Cc2cc(O)nc3ccccc23)c1 please.
OUT: 11.3

IN: Report inhibition for COc1cccc(-c2cc(=O)[nH]c(N3CCN(c4ccccc4)CC3)n2)c1 please.
OUT: 39

IN: Report inhibition for N#Cc1c(O)nc(SCc2ccccc2Cl)nc1-c1ccccc1 please.
OUT: 71.9

IN: Report inhibition for COc1ccc(CNC(=O)C2CCCN(c3nc4c(-c5ccc(C)cc5)csc4c(=O)[nH]3)C2)cc1 (configuration not stated) please.
OUT: 21.9

IN: Report inhibition for Cc1cc2nc(SCC(=O)N(C)c3cccc(Cl)c3)[nH]c(=O)c2[nH]1 please.
OUT: 14.7

IN: Report inhibition for Oc1ccc(-c2[nH]c(-c3ccccc3O)nc2-c2ccccc2)cc1 please.
OUT: 53

IN: Report inhibition for COc1ccccc1NS(=O)(=O)c1cc(-c2n[nH]c(=O)c3ccccc23)ccc1C please.
OUT: 19
